src = the supplement of paper PMC9112550

Collected shrunken log2 fold change values appear next to each entry.
System: Escherichia coli TOP10
Assay: shrunken log2 fold change of peptide-encoding DNA abundance (4.5 h post-induction vs induction); higher = less antimicrobial activity (less host growth inhibition)
Details: time post-induction: 4.5 h; library: site-saturation at positions 5, 18, 19, 20

RRIRHRPPRLPRPRPRPHFLPRP: -0.0519

Noted for RRIRTRPPRLPRPRPRPLMEPRP : its shrunken log2 fold change reads 0.0859

Noted for RRIRNRPPRLPRPRPRPEDDPRP : its shrunken log2 fold change reads -0.01

Noted for RRIRFRPPRLPRPRPRPFIEPRP : its shrunken log2 fold change reads -0.894

Noted for RRIRKRPPRLPRPRPRPSGYPRP : its shrunken log2 fold change reads -0.0136

Noted for RRIRFRPPRLPRPRPRPTTNPRP : its shrunken log2 fold change reads -0.2

Noted for RRIRYRPPRLPRPRPRPHQHPRP : its shrunken log2 fold change reads 0.0599

Noted for RRIRMRPPRLPRPRPRPIEPPRP : its shrunken log2 fold change reads 0.0361

Noted for RRIRKRPPRLPRPRPRPTTMPRP : its shrunken log2 fold change reads 0.171

Noted for RRIRPRPPRLPRPRPRPHPAPRP : its shrunken log2 fold change reads 0.217

====

Collected shrunken log2 fold change values appear next to each entry.
Test system: Escherichia coli TOP10
Assay: shrunken log2 fold change of peptide-encoding DNA abundance (4.5 h post-induction vs induction); higher = less antimicrobial activity (less host growth inhibition)
Conditions: time post-induction: 4.5 h; library: site-saturation at positions 5, 18, 19, 20

Solved cases below.
RRIRDRPPRLPRPRPRPMQWPRP: 0.0918
RRIRMRPPRLPRPRPRPPVLPRP: -0.122
RRIRARPPRLPRPRPRPIHYPRP: -0.241
RRIRHRPPRLPRPRPRPCRRPRP: -0.131
RRIRGRPPRLPRPRPRPRKHPRP: 0.632
RRIRYRPPRLPRPRPRPYMMPRP: -0.337
RRIRIRPPRLPRPRPRPSNAPRP: -0.0615
RRIRKRPPRLPRPRPRPNSVPRP: 0.0305
RRIRQRPPRLPRPRPRPRNDPRP: -0.485
RRIRDRPPRLPRPRPRPYGVPRP: 0.00737

Noted for RRIRLRPPRLPRPRPRPRYWPRP : its shrunken log2 fold change reads -0.0087

Noted for RRIRTRPPRLPRPRPRPMGQPRP : its shrunken log2 fold change reads 0.103

Noted for RRIRSRPPRLPRPRPRPYTQPRP : its shrunken log2 fold change reads -0.184

Noted for RRIRDRPPRLPRPRPRPVRRPRP : its shrunken log2 fold change reads 0.971

Noted for RRIRHRPPRLPRPRPRPTLAPRP : its shrunken log2 fold change reads 0.382

====

Test system: Escherichia coli TOP10
Test: shrunken log2 fold change of peptide-encoding DNA abundance (4.5 h post-induction vs induction); higher = less antimicrobial activity (less host growth inhibition)
Details: time post-induction: 4.5 h; library: site-saturation at positions 5, 18, 19, 20
Classify by measured shrunken log2 fold change: fulfilled if it is equal to or exceeds -0.02, not fulfilled if it is smaller.

Reference set (2 entries):
RRIRRRPPRLPRPRPRPAWDPRP: fulfilled
RRIRCRPPRLPRPRPRPTYFPRP: not fulfilled

**Query** # bool: shrunken log2 fold change of RRIRYRPPRLPRPRPRPKLDPRP >= -0.02
**Result** not fulfilled

**Query** # bool: shrunken log2 fold change of RRIRTRPPRLPRPRPRPGKIPRP >= -0.02
**Result** fulfilled

**Query** # bool: shrunken log2 fold change of RRIRGRPPRLPRPRPRPFHTPRP >= -0.02
**Result** not fulfilled

**Query** # bool: shrunken log2 fold change of RRIRYRPPRLPRPRPRPIDLPRP >= -0.02
**Result** not fulfilled

**Query** # bool: shrunken log2 fold change of RRIRYRPPRLPRPRPRPKYPPRP >= -0.02
**Result** fulfilled

**Query** # bool: shrunken log2 fold change of RRIRPRPPRLPRPRPRPADRPRP >= -0.02
**Result** fulfilled

**Query** # bool: shrunken log2 fold change of RRIRERPPRLPRPRPRPVRCPRP >= -0.02
**Result** fulfilled

**Query** # bool: shrunken log2 fold change of RRIRNRPPRLPRPRPRPNNLPRP >= -0.02
**Result** not fulfilled

====

System: Escherichia coli TOP10
Test: shrunken log2 fold change of peptide-encoding DNA abundance (4.5 h post-induction vs induction); higher = less antimicrobial activity (less host growth inhibition)
Details: time post-induction: 4.5 h; library: site-saturation at positions 5, 18, 19, 20
Classify by measured shrunken log2 fold change: 1 if it is equal to or exceeds 0.1, 0 if it is smaller.

Reference set (5 entries):
RRIRLRPPRLPRPRPRPNSPPRP: 0
RRIRPRPPRLPRPRPRPLTSPRP: 0
RRIRPRPPRLPRPRPRPVMGPRP: 1
RRIRQRPPRLPRPRPRPAGAPRP: 1
RRIRGRPPRLPRPRPRPWLKPRP: 0

**Query** # bool: shrunken log2 fold change of RRIRRRPPRLPRPRPRPDSWPRP >= 0.1
**Result** 1

**Query** # bool: shrunken log2 fold change of RRIRDRPPRLPRPRPRPKEVPRP >= 0.1
**Result** 1

**Query** # bool: shrunken log2 fold change of RRIRTRPPRLPRPRPRPWWMPRP >= 0.1
**Result** 0

====

System: Escherichia coli TOP10
Test: shrunken log2 fold change of peptide-encoding DNA abundance (4.5 h post-induction vs induction); higher = less antimicrobial activity (less host growth inhibition)
Conditions: time post-induction: 4.5 h; library: site-saturation at positions 5, 18, 19, 20
Classes (shrunken log2 fold change): 0 (below -0.2), 1 (-0.2 to below 0.05), 2 (0.05 or more)

RRIRDRPPRLPRPRPRPFMSPRP: 1
RRIRSRPPRLPRPRPRPMRYPRP: 2
RRIRYRPPRLPRPRPRPEGYPRP: 1
RRIRPRPPRLPRPRPRPCVIPRP: 0
RRIRERPPRLPRPRPRPPTHPRP: 2
RRIRVRPPRLPRPRPRPLPIPRP: 0

**Query** Bin? RRIRKRPPRLPRPRPRPDYEPRP
**Result** 1

**Query** Bin? RRIRCRPPRLPRPRPRPCDDPRP
**Result** 1

**Query** Bin? RRIRRRPPRLPRPRPRPNVRPRP
**Result** 1

**Query** Bin? RRIRRRPPRLPRPRPRPQWKPRP
**Result** 1

**Query** Bin? RRIRYRPPRLPRPRPRPGTHPRP
**Result** 0

**Query** Bin? RRIRNRPPRLPRPRPRPFNVPRP
**Result** 2

====

System: Escherichia coli TOP10
Assay: shrunken log2 fold change of peptide-encoding DNA abundance (4.5 h post-induction vs induction); higher = less antimicrobial activity (less host growth inhibition)
Conditions: time post-induction: 4.5 h; library: site-saturation at positions 5, 18, 19, 20
Collected shrunken log2 fold change values appear next to each entry.
No unit in the answer, please; the number alone is enough.

Solved cases below.
RRIRPRPPRLPRPRPRPVWSPRP: 0.0634
RRIRYRPPRLPRPRPRPHTIPRP: -0.852
RRIRIRPPRLPRPRPRPTEDPRP: 0.267
RRIRMRPPRLPRPRPRPATYPRP: 0.0281
RRIRPRPPRLPRPRPRPPCIPRP: 0.00615
RRIRFRPPRLPRPRPRPQVGPRP: -0.0394

Noted for RRIRGRPPRLPRPRPRPVQSPRP : its shrunken log2 fold change reads 0.689

Noted for RRIRDRPPRLPRPRPRPPREPRP : its shrunken log2 fold change reads 0.837

Noted for RRIRYRPPRLPRPRPRPMAAPRP : its shrunken log2 fold change reads -0.115

Noted for RRIRKRPPRLPRPRPRPCQIPRP : its shrunken log2 fold change reads 0.0947

====

Test system: Escherichia coli TOP10;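 also: peptides expressed intracellularly from a pBAD plasmid library in pooled LB shake-flask culture, induced with 0.3% L-arabinose, DNA abundance read by NGS, three biological replicates, DESeq2 with apeglm shrinkage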
Experiment: shrunken log2 fold change of peptide-encoding DNA abundance (4.5 h post-induction vs induction); higher = less antimicrobial activity (less host growth inhibition)
Conditions: time post-induction: 4.5 h; library: site-saturation at positions 5, 18, 19, 20
Classes (shrunken log2 fold change): low value: < -0.07; medium value: ≥ -0.07 and < 0.09; high value: ≥ 0.09

Reference set (6 entries):
RRIRLRPPRLPRPRPRPPEPPRP: high value
RRIRDRPPRLPRPRPRPCRMPRP: medium value
RRIRHRPPRLPRPRPRPMAAPRP: high value
RRIRERPPRLPRPRPRPLFTPRP: low value
RRIRTRPPRLPRPRPRPCQHPRP: medium value
RRIRSRPPRLPRPRPRPHVKPRP: medium value

**Query** Bin? RRIRERPPRLPRPRPRPQPVPRP
**Result** low value

**Query** Bin? RRIRIRPPRLPRPRPRPDDKPRP
**Result** low value

**Query** Bin? RRIRMRPPRLPRPRPRPMYRPRP
**Result** medium value

**Query** Bin? RRIRERPPRLPRPRPRPTNRPRP
**Result** low value

**Query** Bin? RRIRGRPPRLPRPRPRPGEQPRP
**Result** high value

**Query** Bin? RRIRHRPPRLPRPRPRPHQPPRP
**Result** medium value

**Query** Bin? RRIRHRPPRLPRPRPRPQSPPRP
**Result** medium value

**Query** Bin? RRIRWRPPRLPRPRPRPCIEPRP
**Result** medium value

**Query** Bin? RRIRKRPPRLPRPRPRPEFRPRP
**Result** high value
